tested-on: UniProt Q16288
Sequence (Q16288 32-839): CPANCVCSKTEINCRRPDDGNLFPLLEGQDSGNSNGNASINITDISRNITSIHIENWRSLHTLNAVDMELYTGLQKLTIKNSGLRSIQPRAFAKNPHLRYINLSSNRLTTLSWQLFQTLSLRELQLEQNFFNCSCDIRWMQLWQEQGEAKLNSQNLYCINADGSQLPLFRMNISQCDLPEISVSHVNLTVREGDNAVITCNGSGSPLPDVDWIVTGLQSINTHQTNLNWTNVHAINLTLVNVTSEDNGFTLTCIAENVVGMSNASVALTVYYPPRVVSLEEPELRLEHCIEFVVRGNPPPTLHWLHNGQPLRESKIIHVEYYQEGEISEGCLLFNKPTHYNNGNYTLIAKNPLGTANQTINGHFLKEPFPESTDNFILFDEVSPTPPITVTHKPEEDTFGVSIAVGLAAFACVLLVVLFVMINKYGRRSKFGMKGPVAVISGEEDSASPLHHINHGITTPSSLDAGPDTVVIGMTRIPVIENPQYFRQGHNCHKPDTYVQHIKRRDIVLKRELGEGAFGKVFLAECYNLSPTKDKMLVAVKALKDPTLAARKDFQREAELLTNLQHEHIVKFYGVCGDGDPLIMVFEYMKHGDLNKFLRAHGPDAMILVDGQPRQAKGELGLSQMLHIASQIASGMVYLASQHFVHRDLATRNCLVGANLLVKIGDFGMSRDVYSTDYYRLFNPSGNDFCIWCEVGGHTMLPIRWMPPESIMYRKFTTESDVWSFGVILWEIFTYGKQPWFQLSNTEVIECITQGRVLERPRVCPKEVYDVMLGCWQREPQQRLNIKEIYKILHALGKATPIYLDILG
protocol: Reaction Biology HotSpot kinase assay
Format: biochemical
protocol-conditions: 500 nM compound, 100 μM radiolabeled ATP
Would you mind labelling by inhibition at 0.5 µM? At or over 50% is met, under is not met.

molecule	tested-on	label-class
C(#Cc1cncc2ccccc12)c1ccc(C2=NCCN2)cc1 [HSM1813]	UniProt Q16288	not met
Nc1nccc(Cl)c1C#Cc1ccc(C2=NCCN2)cc1 [HSM1798]	UniProt Q16288	not met
Cc1ccc(C(=O)Nc2ccc(CN3CCN(C)CC3)c(C(F)(F)F)c2)cc1C#Cc1c(N)ncc2ccc(Cl)cc12 [HSN286]	UniProt Q16288	met
N#Cc1ccc(C#Cc2c(N)ncc3ccc(Cl)cc23)cc1 [HSM1611]	UniProt Q16288	not met
Cc1ccc(C(=O)Nc2ccc(CN3CCN(C)CC3)c(C(F)(F)F)c2)cc1C#Cc1cc(N)nc2ccccc12 [HSN285]	UniProt Q16288	not met

Exam item: Decide: inhibition at 0.5 µM of Cc1ccc(C(=O)NCCN2CCCCC2)cc1C#Cc1c(N)ncc2ccc(Cl)cc12 [HSN248] >= 50%?
Marked response: met

Exam item: Could you verify whether the entry Cc1ccc(C(=O)Nc2ccc(CN3CCN(C)CC3)c(C(F)(F)F)c2)cc1C#Cc1cnc(N)c2ncccc12 [HSN356] shows inhibition at 0.5 µM of no less than 50%?
Marked response: met

###

System: RAF1
protocol: Reaction Biology HotSpot kinase assay
Format: biochemical
protocol-conditions: 500 nM compound
quantity-measured: Percentage kinase inhibition RAF1 (%)
Reply with just the number (in %).

compound	Percentage kinase inhibition RAF1 [%]
CN(C)CC(O)CNC(=O)c1ccc(C#Cc2c(N)ncc3ccc(Cl)cc23)cc1 (centres unmarked)	5
Cc1ccc(C(=O)Nc2ccc(CN3CCN(C)CC3)c(C(F)(F)F)c2)cc1C#Cc1cnc(N)c2ccccc12	96
Cc1ccc(C(=O)Nc2ccc(CN3CCN(C)CC3)c(C(F)(F)F)c2)cc1C#Cc1cnc(N)c2ncccc12	100
Cc1ccc(C(=O)Nc2ccc(CN3CCN(C)CC3)c(C(F)(F)F)c2)cc1C#Cc1c(N)ncc2ccc(Cl)cc12	94

Turning now to a further record.
Exam item: Recorded Percentage kinase inhibition RAF1 of `Cc1ccc(C(=O)Nc2ccc(CN3CCN(C)CC3)c(C(F)(F)F)c2)cc1C#Cc1cc(N)nc2ccccc12` , please.
Marked response: 90

###

tested-on: c-kit (Homo sapiens (Human), UniProt P10721)
Sequence (P10721 26-976): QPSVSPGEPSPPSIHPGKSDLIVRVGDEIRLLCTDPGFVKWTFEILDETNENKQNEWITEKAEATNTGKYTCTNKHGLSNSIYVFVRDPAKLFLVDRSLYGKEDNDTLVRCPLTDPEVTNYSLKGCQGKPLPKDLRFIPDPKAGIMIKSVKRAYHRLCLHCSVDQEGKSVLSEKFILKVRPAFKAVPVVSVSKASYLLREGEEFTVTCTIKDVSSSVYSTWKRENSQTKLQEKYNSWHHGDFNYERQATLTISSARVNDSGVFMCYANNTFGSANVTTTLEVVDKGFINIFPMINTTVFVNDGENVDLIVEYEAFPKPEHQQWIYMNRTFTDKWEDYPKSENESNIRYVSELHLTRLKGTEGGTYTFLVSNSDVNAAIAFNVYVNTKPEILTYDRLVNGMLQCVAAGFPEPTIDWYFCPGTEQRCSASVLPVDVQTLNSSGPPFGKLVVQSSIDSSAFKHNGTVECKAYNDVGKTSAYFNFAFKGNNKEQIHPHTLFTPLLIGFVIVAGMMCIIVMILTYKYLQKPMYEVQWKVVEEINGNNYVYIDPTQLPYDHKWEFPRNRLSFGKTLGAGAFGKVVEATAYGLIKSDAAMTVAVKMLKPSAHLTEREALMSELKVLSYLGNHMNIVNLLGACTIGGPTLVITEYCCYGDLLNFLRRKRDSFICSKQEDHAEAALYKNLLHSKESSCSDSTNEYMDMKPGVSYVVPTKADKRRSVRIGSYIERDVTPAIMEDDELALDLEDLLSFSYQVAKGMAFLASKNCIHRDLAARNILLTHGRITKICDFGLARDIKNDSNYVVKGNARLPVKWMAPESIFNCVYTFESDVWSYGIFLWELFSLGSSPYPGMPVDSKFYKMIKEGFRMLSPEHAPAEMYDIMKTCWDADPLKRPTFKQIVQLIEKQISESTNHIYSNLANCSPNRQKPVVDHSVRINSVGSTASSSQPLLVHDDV
protocol: Reaction Biology HotSpot kinase assay
Assay type: biochemical
protocol-conditions: 500 nM compound, 100 μM radiolabeled ATP
Decision: inhibition at 0.5 µM compared against 60%; not below it gives true, below it gives false.

compound-smiles	label-class
N=C(N)c1ccc(/N=N/c2c(N)ncc3ccc(Br)cc23)cc1	true

Exam item: API: above_or_equal(metric=inhibition at 0.5 µM, cutoff=60%) for item `Cc1ccc(C(=O)Nc2ccc(CN3CCN(C)CC3)c(C(F)(F)F)c2)cc1C#Cc1c(N)ncc2c(Cl)cccc12`
Marked response: true

Exam item: Quick check, inhibition at 0.5 µM >= 60%? `N=C(NO)c1ccc(C#Cc2c(N)ncc3ccc(Cl)cc23)cc1`
Marked response: true

Exam item: Is the recorded value of inhibition at 0.5 µM equal to or greater than 60% for this compound? `Cc1ccc(C(=O)Nc2ccc(CN3CCN(C)CC3)c(C(F)(F)F)c2)cc1C#Cc1cnc(N)c2ccccc12`
Marked response: true

Exam item: Could you tell me if the measured inhibition at 0.5 µM of `Cc1ccc(C(=O)Nc2ccc(CN3CCN(C)CC3)c(C(F)(F)F)c2)cc1C#Cc1c(N)ncc2ccccc12` reaches 60% or more?
Marked response: true

###

inhibition at 0.5 µM overview
tested-on: EPHB2 (Homo sapiens (Human), UniProt P29323)
Sequence (P29323 19-1055): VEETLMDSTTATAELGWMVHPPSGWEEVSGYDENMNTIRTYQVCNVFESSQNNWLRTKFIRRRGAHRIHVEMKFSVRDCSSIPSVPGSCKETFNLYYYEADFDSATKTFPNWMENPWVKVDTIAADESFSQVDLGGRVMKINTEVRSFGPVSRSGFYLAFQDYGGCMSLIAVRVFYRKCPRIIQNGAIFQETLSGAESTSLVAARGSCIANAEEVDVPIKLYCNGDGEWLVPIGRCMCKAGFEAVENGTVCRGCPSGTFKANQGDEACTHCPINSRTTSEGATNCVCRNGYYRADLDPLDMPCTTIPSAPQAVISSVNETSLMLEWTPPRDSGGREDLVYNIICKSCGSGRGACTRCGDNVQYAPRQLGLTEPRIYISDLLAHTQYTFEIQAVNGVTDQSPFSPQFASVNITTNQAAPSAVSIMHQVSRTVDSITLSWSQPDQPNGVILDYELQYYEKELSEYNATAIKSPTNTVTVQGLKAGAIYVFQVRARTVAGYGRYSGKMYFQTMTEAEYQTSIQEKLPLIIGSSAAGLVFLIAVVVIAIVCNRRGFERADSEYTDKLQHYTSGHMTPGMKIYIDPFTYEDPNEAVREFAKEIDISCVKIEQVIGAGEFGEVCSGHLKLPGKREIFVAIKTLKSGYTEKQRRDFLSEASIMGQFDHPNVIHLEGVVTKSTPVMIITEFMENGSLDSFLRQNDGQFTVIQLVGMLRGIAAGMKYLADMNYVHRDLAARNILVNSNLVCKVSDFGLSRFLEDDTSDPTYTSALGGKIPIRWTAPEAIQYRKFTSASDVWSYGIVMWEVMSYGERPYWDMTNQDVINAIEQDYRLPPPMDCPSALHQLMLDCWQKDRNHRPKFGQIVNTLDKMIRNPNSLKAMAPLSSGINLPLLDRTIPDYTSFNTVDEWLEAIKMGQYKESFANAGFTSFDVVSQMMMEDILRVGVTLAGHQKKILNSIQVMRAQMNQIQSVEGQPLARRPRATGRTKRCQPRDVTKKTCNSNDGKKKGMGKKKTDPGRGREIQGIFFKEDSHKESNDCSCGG
protocol: Reaction Biology HotSpot kinase assay
Assay type: biochemical
protocol-conditions: 500 nM compound; read-out: Percentage kinase inhibition EPHB2
Numeric answer only, unit % assumed.

compound	quantity-measured	numeric-readout
Cc1ccc(C(=O)Nc2ccc(CN3CCN(C)CC3)c(C(F)(F)F)c2)cc1C#Cc1cc(N)nc2ccccc12 [HSN285]	inhibition at 0.5 µM	3
Cc1ccc(C(=O)Nc2ccc(CN3CCN(C)CC3)c(C(F)(F)F)c2)cc1C#Cc1c(N)ncc2ccc(Cl)cc12 [HSN286]	inhibition at 0.5 µM	96
Cc1ccc(C(=O)Nc2ccc(CN3CCN(C)CC3)c(C(F)(F)F)c2)cc1C#Cc1cnc(N)c2ncccc12 [HSN356]	inhibition at 0.5 µM	100
Cc1ccc(C(=O)Nc2ccc(CN3CCN(C)CC3)c(C(F)(F)F)c2)cc1C#Cc1cnc(N)c2ccccc12 [HSN334]	inhibition at 0.5 µM	98

Then this compound:
Exam item: What inhibition at 0.5 µM value was documented for this compound, COc1cc2nc(N)nc(C#Cc3cc(C(=O)Nc4ccc(CN5CCN(C)CC5)c(C(F)(F)F)c4)ccc3C)c2cc1OC [HSN325] ?
Marked response: 3

###

Tested on: K562
protocol: IC50 proliferation assay (Alamar Blue, 72 h)
Format: cell-based
protocol-conditions: Homo sapiens, K562, 72 h; read-out: IC50 (proliferation inhibition) Cell line - K562
pIC50: −log10 of the molar value.
Would you mind labelling by pIC50? At or over 8 is true, under is false.

COc1cc2nc(N)nc(C#Cc3cc(C(=O)NCc4ccc(OCCN(C)C)cc4)ccc3C)c2cc1OC false
CCN(CC)CCNC(=O)c1ccc(C)c(C#Cc2c(N)ncc3ccc(Cl)cc23)c1 false

Exam item: Quick check, pIC50 >= 8? `Cc1ccc(C(=O)Nc2ccc(CN3CCN(C)CC3)c(C(F)(F)F)c2)cc1C#Cc1c(N)ncc2c(Cl)cccc12`
Marked response: true

Exam item: API: above_or_equal(metric=pIC50, cutoff=8) for item `Cc1ccc(C(=O)NCc2ccc(OCCN(C)C)cc2)cc1C#Cc1cc(N)nc2ccccc12`
Marked response: false

Exam item: Has `Cc1ccc(C(=O)Nc2ccc(CN3CCN(C)CC3)c(C(F)(F)F)c2)cc1C#Cc1cnc(N)c2ncccc12` a recorded pIC50 greater than or equal to 8?
Marked response: true

###

Data export: Kd values recorded with UniProt P00519.
Sequence (P00519 whole entry): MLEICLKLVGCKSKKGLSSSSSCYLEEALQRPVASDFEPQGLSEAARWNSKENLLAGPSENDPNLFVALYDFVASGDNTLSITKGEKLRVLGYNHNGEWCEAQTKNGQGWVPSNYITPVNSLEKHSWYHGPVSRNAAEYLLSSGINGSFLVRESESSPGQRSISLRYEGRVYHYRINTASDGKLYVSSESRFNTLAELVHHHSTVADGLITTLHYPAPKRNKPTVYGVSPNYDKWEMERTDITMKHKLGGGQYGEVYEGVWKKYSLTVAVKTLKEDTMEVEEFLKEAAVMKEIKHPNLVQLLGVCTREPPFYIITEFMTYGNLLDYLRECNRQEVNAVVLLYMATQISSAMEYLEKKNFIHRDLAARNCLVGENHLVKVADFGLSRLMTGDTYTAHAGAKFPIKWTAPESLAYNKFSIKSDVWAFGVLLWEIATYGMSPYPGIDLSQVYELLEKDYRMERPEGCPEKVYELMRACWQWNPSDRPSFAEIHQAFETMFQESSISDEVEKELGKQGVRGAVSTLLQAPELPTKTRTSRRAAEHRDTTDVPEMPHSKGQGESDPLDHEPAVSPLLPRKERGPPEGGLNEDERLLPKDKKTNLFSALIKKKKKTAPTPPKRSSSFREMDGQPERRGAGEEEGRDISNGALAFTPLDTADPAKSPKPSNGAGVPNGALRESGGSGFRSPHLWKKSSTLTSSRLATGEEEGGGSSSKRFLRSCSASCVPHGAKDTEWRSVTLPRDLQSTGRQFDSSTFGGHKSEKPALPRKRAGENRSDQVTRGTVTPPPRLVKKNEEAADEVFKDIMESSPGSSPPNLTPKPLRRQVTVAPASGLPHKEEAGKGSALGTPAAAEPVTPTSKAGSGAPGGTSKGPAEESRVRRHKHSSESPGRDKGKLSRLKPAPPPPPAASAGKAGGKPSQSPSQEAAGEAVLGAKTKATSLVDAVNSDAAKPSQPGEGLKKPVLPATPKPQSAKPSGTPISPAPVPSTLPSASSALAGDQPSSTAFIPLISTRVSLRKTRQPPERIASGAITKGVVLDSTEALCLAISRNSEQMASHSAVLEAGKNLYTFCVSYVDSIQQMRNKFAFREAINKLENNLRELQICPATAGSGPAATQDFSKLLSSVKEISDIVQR
All answers are understood in nM, so give the number only.

compound	readout-units	numeric-readout
Cc1ccc(C(=O)Nc2ccc(CN3CCN(C)CC3)c(C(F)(F)F)c2)cc1C#Cc1cnc(N)c2ccccc12 [HSN334]	nM	12
Cc1ccc(C(=O)Nc2ccc(CN3CCN(C)CC3)c(C(F)(F)F)c2)cc1C#Cc1c(N)ncc2ccc(Cl)cc12 [HSN286]	nM	7.9

Exam item: Find Kd (UniProt P00519) for the entry Cc1ccc(C(=O)Nc2ccc(CN3CCN(C)CC3)c(C(F)(F)F)c2)cc1C#Cc1cnc(N)c2ncccc12 [HSN356]
Marked response: 1.2

###

Test system: NCI H1703 (NSCLC)
protocol: Activity against lung cancer cell line
Format: cell-based
quantity-measured: IC50 (nM)
Answer in nM, number only, no unit symbol.

Exam item: So what's the measured IC50 for this one? Cc1ncc(C(=O)Nc2ccc(CN3CCN(C)CC3)c(C(F)(F)F)c2)cc1C#Cc1c(N)ncc2ccc(F)cc12 [HSN431]
Marked response: 247

###

Below, each entry is listed alongside its reported inhibition at 0.5 µM.
tested-on: c-kit (Homo sapiens (Human))
protocol: Reaction Biology HotSpot kinase assay
Assay type: biochemical
protocol-conditions: 500 nM compound, 100 μM radiolabeled ATP
Only the number, expressed in %, is required.

Known results for compounds:
Nc1nccc(Cl)c1C#Cc1ccc(C2=NCCN2)cc1 15
Cc1ccc(C(=O)Nc2ccc(CN3CCN(C)CC3)c(C(F)(F)F)c2)cc1C#Cc1cc(N)nc2ccccc12 31
Cc1ccc(C(=O)Nc2ccc(CN3CCN(C)CC3)c(C(F)(F)F)c2)cc1C#Cc1cnc(N)c2ncccc12 87
Nc1ncc2ccc(Cl)cc2c1C#Cc1ccc(C2=NCCN2)cc1 83

Exam item: Can you look up inhibition at 0.5 µM on c-kit (Homo sapiens (Human)) for `Cc1ccc(C(=O)Nc2ccc(CN3CCN(C)CC3)c(C(F)(F)F)c2)cc1C#Cc1c(N)ncc2ccc(Cl)cc12` ?
Marked response: 61

Exam item: Report inhibition at 0.5 µM for `Cc1ccc(C(=O)NCCN2CCCCC2)cc1C#Cc1c(N)ncc2ccc(Cl)cc12` tested on c-kit (Homo sapiens (Human)).
Marked response: 93

Exam item: Lab note: need inhibition at 0.5 µM for `CCN(CC)CCNC(=O)c1ccc(C)c(C#Cc2c(N)ncc3ccc(Cl)cc23)c1` on c-kit (Homo sapiens (Human)), anyone have it?
Marked response: 86

Exam item: // fetch c-kit (Homo sapiens (Human)) inhibition at 0.5 µM for `CC1(C)CNC(c2ccc(C#Cc3c(N)ncc4ccc(Cl)cc34)cc2)=N1`
Marked response: 78

###

What follows is a record of pKd for FYN (Homo sapiens (Human)).
The meaning of pKd here: minus log10 of the concentration in molar units.

molecule	pKd
Cc1ccc(C(=O)Nc2ccc(CN3CCN(C)CC3)c(C(F)(F)F)c2)cc1C#Cc1cnc(N)c2ncccc12 [HSN356]	7.42

Now for another entry.
Exam item: Which pKd value is on record for Cc1ccc(C(=O)Nc2ccc(CN3CCN(C)CC3)c(C(F)(F)F)c2)cc1C#Cc1c(N)ncc2ccc(Cl)cc12 [HSN286] ?
Marked response: 7.55

The reported numbers originate from patent US20250084039A1.
